measured.on: Acetylcholinesterase from Electrophorus electricus AChE (Electrophorus electricus, UniProt O42275)
Construct: purchased Sigma-Aldrich
Sequence (O42275 24-633): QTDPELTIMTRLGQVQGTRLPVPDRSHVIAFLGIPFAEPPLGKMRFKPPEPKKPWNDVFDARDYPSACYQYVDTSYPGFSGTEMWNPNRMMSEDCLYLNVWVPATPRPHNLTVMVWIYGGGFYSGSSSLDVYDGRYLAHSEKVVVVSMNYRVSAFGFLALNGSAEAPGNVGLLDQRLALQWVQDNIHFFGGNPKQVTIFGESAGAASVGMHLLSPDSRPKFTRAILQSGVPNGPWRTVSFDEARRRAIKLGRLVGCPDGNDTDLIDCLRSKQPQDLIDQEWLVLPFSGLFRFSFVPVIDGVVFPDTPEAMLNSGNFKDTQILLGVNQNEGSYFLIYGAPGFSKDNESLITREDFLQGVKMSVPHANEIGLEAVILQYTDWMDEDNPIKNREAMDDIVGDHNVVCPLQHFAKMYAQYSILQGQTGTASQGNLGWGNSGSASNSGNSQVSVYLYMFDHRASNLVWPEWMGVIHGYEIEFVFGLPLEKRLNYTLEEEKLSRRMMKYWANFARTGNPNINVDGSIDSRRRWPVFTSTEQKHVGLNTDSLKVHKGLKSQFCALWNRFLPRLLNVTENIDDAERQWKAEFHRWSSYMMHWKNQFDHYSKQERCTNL
test: Cholinesterase activity by the Elmann method, kinetic parameters and Ki on AChE
Format: biochemical
test.context: mean over experiments; n = 6 CBDA, n = 7 CBGA; competitive inhibition; read-out: calculated Ki, AChE
assay.readout: Ki (µM)
Respond numerically; units are µM and should not be typed.

CCCCCc1cc(O)c(C/C=C(\C)CCC=C(C)C)c(O)c1C(=O)O = 10.5

# input for lookup
Task item: Give a short answer stating reported Ki for `C=C(C)[C@@H]1CCC(C)=C[C@H]1c1c(O)cc(CCCCC)c(C(=O)O)c1O` .
Reply: 7.9

Origin of the recorded values: paper PMC11745148
